method.summary: in vivo
Type: in vivo
study.conditions: rat, in vivo, po, 20 mg/kg
Protocol: […] The pharmacokinetic parameters for study compounds were calculated by WinNonlin Pro (Pharsight Corp, CA) using standard noncompartmental methods. […] The elimination phase half-life (t1/2) was calculated by least-squares regression analysis of the terminal linear part of the log concentration-time curve. […] The mean residence time (MRT) representing the average amount of time a compound remains in a compartment or system was calculated extrapolating the drug concentration profile to infinity. […]
measurement.kind: Tmax (min)
Numbers only, in min.

[Q] Given the compound CC(C)c1cc(-c2ccc(Cl)c(F)c2)cc(C(C)C)c1O [p-(3-F,4-Cl—Ph)-propofol, Para-(3-Fluoro,4-chlorophenyl)-propofol] , write its reported Tmax.
[A] 30

----------
method.summary: in vivo
Type: in vivo
study.conditions: rat, plasma, iv, 1 mg/kg, i.v. 1 mg/kg, mean n=3, read-out: cmax
measurement.kind: cmax (ng/mL)
Give bare numbers, in ng/mL.

[Q] Given the molecule CC(C)c1cc(Cl)cc(C(C)C)c1O , write its reported cmax.
[A] 110

----------
method.summary: in vivo
Format: in vivo
study.conditions: plasma, iv; rat, i.v. 1 mg/kg, mean n=3
measurement.kind: clearance
Please format your answer as a value with the unit trailing.

[Q] Given the molecule CC(C)c1cc(Cl)cc(C(C)C)c1O [4-Cl-propofol, 4-Chloropropofol] , write its reported clearance.
[A] 148 mL/min/kg

----------
method.summary: in vivo
Type: in vivo
study.conditions: rat, plasma, iv, 1 mg/kg, i.v. 1 mg/kg, mean n=3, read-out: MRT (converted)
measurement.kind: MRT
Please format your answer as a value with the unit trailing.

[Q] Given the compound CC(C)c1cc(Cl)cc(C(C)C)c1O , write its reported MRT.
[A] 48.7 min

----------
method.summary: in vivo
Format: in vivo
study.conditions: rat, in vivo, iv, 2 mg/kg, iv (2 mg/kg), 30 min, individual animals, read-out: concentration in plasma
measurement.kind: concentration at 30 min
Please format your answer as a value with the unit trailing.

[Q] Given the compound CC(C)c1cc(-c2ccc(Cl)c(F)c2)cc(C(C)C)c1O [p-(3-F,4-Cl—Ph)-propofol, Para-(3-Fluoro,4-chlorophenyl)-propofol] , write its reported concentration at 30 min.
[A] 444 ng/mL

----------
method.summary: in vivo
Format: in vivo
study.conditions: rat, in vivo, iv, 2 mg/kg, iv (2 mg/kg), 1 h, individual animals, read-out: concentration in plasma
measurement.kind: concentration at 1 h
Please format your answer as a value with the unit trailing.

[Q] Given the compound CC(C)c1cc(-c2ccc(Cl)c(F)c2)cc(C(C)C)c1O , write its reported concentration at 1 h.
[A] 316 ng/mL

----------
method.summary: in vivo
Type: in vivo
study.conditions: rat, in vivo, po, 20 mg/kg, p.o. 20 mg/kg, mean n=3, read-out: CL/F
measurement.kind: CL/F (mL/min/kg)
Give bare numbers, in mL/min/kg.

[Q] Given the molecule CC(C)c1cc(-c2ccc(Cl)c(F)c2)cc(C(C)C)c1O , write its reported CL/F.
[A] 231

----------
method.summary: in vivo
Assay type: in vivo
study.conditions: rat, in vivo, po, 20 mg/kg, p.o. 20 mg/kg, mean n=3
measurement.kind: Vd/F (L/kg)
Give bare numbers, in L/kg.

[Q] Given the compound CC(C)c1cc(-c2ccc(Cl)c(F)c2)cc(C(C)C)c1O [p-(3-F,4-Cl—Ph)-propofol, Para-(3-Fluoro,4-chlorophenyl)-propofol] , write its reported Vd/F.
[A] 306

----------
method.summary: in vivo
Type: in vivo
study.conditions: rat, in vivo, po, 20 mg/kg
measurement.kind: bioavailability (%)
Numbers only, in %.

[Q] Given the compound CC(C)c1cc(-c2ccc(Cl)c(F)c2)cc(C(C)C)c1O [p-(3-F,4-Cl—Ph)-propofol, Para-(3-Fluoro,4-chlorophenyl)-propofol] , write its reported bioavailability.
[A] 17.8

----------
method.summary: in vivo
Format: in vivo
study.conditions: rat, plasma, po, 8 mg/kg, p.o. 8 mg/kg, mean n=3, read-out: MRT (converted)
measurement.kind: MRT
Please format your answer as a value with the unit trailing.

[Q] Given the compound CC(C)c1cc(Cl)cc(C(C)C)c1O [4-Cl-propofol, 4-Chloropropofol] , write its reported MRT.
[A] 10.2 h

----------
Please provide measured EC50 for the entries that follow.
target.system: α1 homomeric glycine receptors (Rattus norvegicus)
Construct: expressed in transfected cells; host or cells: HEK 293 (transient transfection by electroporation, cDNA in pCIS2 vector)
Sequence (P07727 29-457): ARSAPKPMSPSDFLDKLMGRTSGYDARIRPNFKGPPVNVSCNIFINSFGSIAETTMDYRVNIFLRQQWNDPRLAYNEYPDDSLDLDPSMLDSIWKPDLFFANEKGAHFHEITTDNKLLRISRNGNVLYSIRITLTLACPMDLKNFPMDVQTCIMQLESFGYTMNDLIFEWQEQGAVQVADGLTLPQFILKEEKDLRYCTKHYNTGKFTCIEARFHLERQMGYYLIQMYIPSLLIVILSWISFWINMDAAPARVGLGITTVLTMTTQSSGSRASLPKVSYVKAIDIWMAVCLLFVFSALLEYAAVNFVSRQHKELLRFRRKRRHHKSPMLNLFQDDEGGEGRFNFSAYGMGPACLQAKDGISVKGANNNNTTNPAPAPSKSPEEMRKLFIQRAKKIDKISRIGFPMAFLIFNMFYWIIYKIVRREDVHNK
method.summary: Whole-cell patch-clamp, Cl- current activated via α1 homomeric glycine receptors in transfected HEK 293 cells
Format: cell-based
study.conditions: EC50 (nM), α1 homomer, initial tests; Hill fit to normalised response; rat α1 receptors in HEK 293
Give bare numbers, in nM.

Provide EC50 for all items below, preserving their order.
1. CC(C)c1cc(-c2ccc(-c3ccccc3)cc2)cc(C(C)C)c1O
2. CC(C)c1cc(-c2ccc(Cl)c(F)c2)cc(C(C)C)c1O
3. CC(C)c1cc(-c2ccc(C(C)(C)C)cc2)cc(C(C)C)c1O
4. CC(C)c1cc(-c2ccc(Cl)cc2)cc(C(C)C)c1O
5. CC(C)c1cc(NC(=O)C(F)(F)F)cc(C(C)C)c1O [4-trifluoroacetamide-propofol, 4-Trifluoroacetamide-propofol]

[A]
1: 0.8; 2: 0.8; 3: 0.05; 4: 0.2; 5: 0.3

----------
method.summary: in vivo
Type: in vivo
study.conditions: rat, plasma, iv, 2 mg/kg, iv (2 mg/kg), 6 h, individual animals
measurement.kind: concentration at 6 h
Please format your answer as a value with the unit trailing.

[Q] Given the compound CC(C)c1cc(-c2ccc(Cl)cc2)cc(C(C)C)c1O , write its reported concentration at 6 h.
[A] 13.1 ng/mL

----------
method.summary: in vivo
Format: in vivo
study.conditions: rat, in vivo, iv, 2 mg/kg, iv (2 mg/kg), 6 h, individual animals, read-out: concentration in plasma
measurement.kind: concentration at 6 h (ng/mL)
Answers are plain numbers, in ng/mL.

[Q] Given the molecule CC(C)c1cc(-c2ccc(Cl)c(F)c2)cc(C(C)C)c1O , write its reported concentration at 6 h.
[A] 24.1

----------
method.summary: in vivo
Format: in vivo
study.conditions: rat, in vivo, po, 20 mg/kg, p.o. 20 mg/kg, mean n=3, read-out: t1/2
measurement.kind: half-life (min)
Give bare numbers, in min.

[Q] Given the molecule CC(C)c1cc(-c2ccc(Cl)c(F)c2)cc(C(C)C)c1O , write its reported half-life.
[A] 789

----------
method.summary: in vivo
Assay type: in vivo
study.conditions: rat, plasma, iv, 2 mg/kg, iv (2 mg/kg), 15 min, individual animals
measurement.kind: concentration at 15 min (ng/mL)
Give bare numbers, in ng/mL.

[Q] Given the compound CC(C)c1cc(-c2ccc(Cl)cc2)cc(C(C)C)c1O [4-(p-Cl—Ph)-propofol, 4-(para-Chlorophenyl)-propofol] , write its reported concentration at 15 min.
[A] 784

----------
method.summary: in vivo
Format: in vivo
study.conditions: rat, in vivo
measurement.kind: bioavailability

[Q] Given the compound CC(C)c1cc(-c2ccc(Cl)c(F)c2)cc(C(C)C)c1O [p-(3-F,4-Cl—Ph)-propofol, Para-(3-Fluoro,4-chlorophenyl)-propofol] , write its reported bioavailability.
[A] ~18%

----------
method.summary: in vivo
Assay type: in vivo
study.conditions: rat, plasma, iv, 2 mg/kg, iv (2 mg/kg), 2 h, individual animals
measurement.kind: concentration at 2 h (ng/mL)
Numbers only, in ng/mL.

[Q] Given the molecule CC(C)c1cc(-c2ccc(Cl)cc2)cc(C(C)C)c1O [4-(p-Cl—Ph)-propofol, 4-(para-Chlorophenyl)-propofol] , write its reported concentration at 2 h.
[A] 63.9

----------
method.summary: in vivo
Format: in vivo
study.conditions: rat, plasma, po, 8 mg/kg, 8 mg/kg p.o., individual animals, read-out: CL/F
Method: […] The pharmacokinetic parameters for study compounds were calculated by WinNonlin Pro (Pharsight Corp, CA) using standard noncompartmental methods. […] The elimination phase half-life (t1/2) was calculated by least-squares regression analysis of the terminal linear part of the log concentration-time curve. […] The mean residence time (MRT) representing the average amount of time a compound remains in a compartment or system was calculated extrapolating the drug concentration profile to infinity. […]
measurement.kind: CL/F (mL/min/kg)
One number for each entry, in mL/min/kg.

[Q] Given the compound CC(C)c1cc(Cl)cc(C(C)C)c1O , write its reported CL/F.
[A] 241

----------
method.summary: in vivo
Type: in vivo
study.conditions: rat, plasma, po, 8 mg/kg, po (8 mg/kg), 6 h, individual animals
measurement.kind: concentration at 6 h

[Q] Given the compound CC(C)c1cc(Cl)cc(C(C)C)c1O , write its reported concentration at 6 h.
[A] 33.8 ng/mL

----------
method.summary: in vivo
Type: in vivo
study.conditions: rat, plasma, po, 8 mg/kg, p.o. 8 mg/kg, mean n=3, read-out: cmax
Experimental: […] The pharmacokinetic parameters for study compounds were calculated by WinNonlin Pro (Pharsight Corp, CA) using standard noncompartmental methods. […] The elimination phase half-life (t1/2) was calculated by least-squares regression analysis of the terminal linear part of the log concentration-time curve. […] The mean residence time (MRT) representing the average amount of time a compound remains in a compartment or system was calculated extrapolating the drug concentration profile to infinity. […]
measurement.kind: cmax (ng/mL)
One number for each entry, in ng/mL.

[Q] Given the molecule CC(C)c1cc(Cl)cc(C(C)C)c1O , write its reported cmax.
[A] 100
